Hello, the source for this data is paper PMC12486854, in case you need it.

System: Mycobacterium smegmatis (Msm)
conditionDetails: without clavulanic acid; 96 h
Parameter: MIC Msm (µg/mL), no clavulanic acid. Scope: all listed entries.

# molecule, MIC Msm (µg/mL), no clavulanic acid
records = [
    ("COc1ccc(S(=O)(=O)c2ccccc2)nc1 [compound 40, 40]", ">128 µg/mL"),
    ("Clc1ccccn1 [compound 44, 44]", ">128 µg/mL"),
    ("O=[N+]([O-])c1ccc(S(=O)(=O)c2ncc(C(F)(F)F)cc2Cl)cc1 [compound 46, 46]", ">128 µg/mL"),
    ("O=S(=O)(c1ccccc1)c1cccnc1 [compound 38, 38]", ">128 µg/mL"),
    ("N#Cc1cccnc1S(=O)(=O)c1ccccc1 [compound 42, 42]", ">128 µg/mL"),
    ("O=[N+]([O-])c1cccnc1S(=O)(=O)c1ccccc1 [compound 36, 36]", "16 µg/mL"),
    ("O=S(=O)(c1ccccc1)c1ccncc1 [compound 39, 39]", ">128 µg/mL"),
    ("Nc1ncc(S(=O)(=O)c2ccc([N+](=O)[O-])cc2)s1 [compound 45, 45]", ">128 µg/mL"),
    ("O=[N+]([O-])c1ccc(Cl)nc1 [compound 43, 43]", "32 µg/mL"),
    ("O=[N+]([O-])c1ccc(S(=O)(=O)c2ccccc2)cn1 [compound 32, 32]", "4 µg/mL"),
    ("O=S(=O)(c1ccccc1)c1ccccn1 [compound 37, 37]", ">128 µg/mL"),
    ("N#Cc1ccc(S(=O)(=O)c2ccccc2)nc1 [compound 41, 41]", ">128 µg/mL"),
]

---

measuredOn: LdtMt2 (Mycobacterium tuberculosis, UniProt I6Y9J2)
Construct: gene ldtB
Sequence (I6Y9J2 35-408): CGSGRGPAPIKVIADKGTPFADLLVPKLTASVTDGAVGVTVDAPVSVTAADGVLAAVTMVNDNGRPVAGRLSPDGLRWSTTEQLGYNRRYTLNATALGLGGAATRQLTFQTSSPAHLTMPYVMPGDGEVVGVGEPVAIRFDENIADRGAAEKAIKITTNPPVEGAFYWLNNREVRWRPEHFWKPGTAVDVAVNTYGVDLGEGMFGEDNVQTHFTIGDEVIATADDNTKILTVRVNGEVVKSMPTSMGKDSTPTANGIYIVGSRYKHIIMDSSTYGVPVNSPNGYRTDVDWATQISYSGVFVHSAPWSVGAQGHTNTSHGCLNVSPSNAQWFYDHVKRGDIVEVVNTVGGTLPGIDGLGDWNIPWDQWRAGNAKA
assayInfo: biochemical
conditionDetails: 10 min pre-incubation; read-out: pIC50 LdtMt2 (converted)

# smilesStructure, valueComparator, IC50 / µM
records = [
    ("O=S(=O)(c1ccccc1)c1ccccn1", ">", 39.8),
    ("N#Cc1ccc(S(=O)(=O)c2ccccc2)nc1", "=", 25.1),
    ("O=S(=O)(c1ccccc1)c1ccncc1", ">", 39.8),
    ("O=[N+]([O-])c1cccnc1S(=O)(=O)c1ccccc1", "=", 25.1),
    ("O=[N+]([O-])c1ccc(Cl)nc1", ">", 39.8),
    ("O=[N+]([O-])c1ccc(S(=O)(=O)c2ccccc2)nc1", "=", 5.01),
]

---

List of kinact/KI values.
measuredOn: LdtMt2 (Mycobacterium tuberculosis, UniProt I6Y9J2)
Construct: gene ldtB
assayInfo: biochemical
conditionDetails: read-out: kinact/KI LdtMt2
endpointName: kinact/KI

# molecule, measuredOn, endpointName, dataValue
rows = [
    ("N#Cc1cccnc1S(=O)(=O)c1ccccc1 [compound 42, 42]", "LdtMt2 (Mycobacterium tuberculosis, UniProt I6Y9J2)", "kinact/KI", "< 10 M⁻¹ s⁻¹"),
    ("O=S(=O)(c1ccccc1)c1cccnc1 [compound 38, 38]", "LdtMt2 (Mycobacterium tuberculosis, UniProt I6Y9J2)", "kinact/KI", "< 10 M⁻¹ s⁻¹"),
    ("O=[N+]([O-])c1ccc(Cl)nc1 [compound 43, 43]", "LdtMt2 (Mycobacterium tuberculosis, UniProt I6Y9J2)", "kinact/KI", "< 10 M⁻¹ s⁻¹"),
    ("O=[N+]([O-])c1ccc(S(=O)(=O)c2ccc(Br)cc2)nc1 [compound 35, 35]", "LdtMt2 (Mycobacterium tuberculosis, UniProt I6Y9J2)", "kinact/KI", "272 M⁻¹ s⁻¹"),
    ("O=S(=O)(c1ccccc1)c1ccncc1 [compound 39, 39]", "LdtMt2 (Mycobacterium tuberculosis, UniProt I6Y9J2)", "kinact/KI", "< 10 M⁻¹ s⁻¹"),
    ("Cc1ccc(S(=O)(=O)c2ccc([N+](=O)[O-])cn2)cc1 [compound 33, 33]", "LdtMt2 (Mycobacterium tuberculosis, UniProt I6Y9J2)", "kinact/KI", "51.9 M⁻¹ s⁻¹"),
]
